Consider the following pIC50 data for Vitamin K-dependent protein C (Homo sapiens), collected from several reports.
pIC50 (log units): -log10 of the concentration in mol/L.

(Q) May I ask what pIC50 has been recorded for `CC(=N)N1CCC(Oc2ccc3c(c2)n(Cc2ccc4ccc(C(=N)N)cc4c2)c(=O)n3CC(=O)OCC(C)C)CC1` ?
(A) 5.09

(Q) Data request, read-out pIC50, for `CC(=N)N1CCC(Oc2ccc3c(c2)n(Cc2ccc4ccc(C(=N)N)cc4c2)c(=O)n3C)CC1`
(A) 5.12

(Q) Find the recorded pIC50 belonging to `CC(=N)N1CCC(Oc2ccc3c(c2)/C(=C/c2ccc(F)cc2)C(=O)N3Cc2ccc3ccc(C(=N)N)cc3c2)CC1` and report it.
(A) 5.81

(Q) # get_value(readout='pIC50', item= `N=C(N)c1ccc2ccc(CN3c4ccc(OC5CCN(C(=N)N)CC5)cc4CCS3(=O)=O)cc2c1` )
(A) 5.47

(Q) Given the entry `CC(C)=C1C(=O)N(Cc2ccc3ccc(C(=N)N)cc3c2)c2ccc(OC3CCN(C(=N)N)CC3)cc21` , report its measured pIC50.
(A) 5.51

(Q) pIC50 lookup needed for `CC(C)COC(=O)Cn1c(=O)n(Cc2ccc3ccc(C(=N)N)cc3c2)c2cc(OC3CCN(C(=N)N)CC3)ccc21` , thanks.
(A) 5.19

(Q) Data request, read-out pIC50, for `Cn1c(=O)n(Cc2ccc3ccc(C(=N)N)cc3c2)c2cc(OC3CCN(C(=N)N)CC3)ccc21`
(A) 5.19

(Q) May I ask what pIC50 has been recorded for `CC(=N)N1CCC(Oc2ccc3[nH]c(=O)n(Cc4ccc5ccc(C(=N)N)cc5c4)c3c2)CC1` ?
(A) 4.80

(Q) Sample `CC(=N)N1CCC(Oc2ccc3c(c2)/C(=C/c2ccccc2)C(=O)N3Cc2ccc3ccc(C(=N)N)cc3c2)CC1` — what was its pIC50?
(A) 6.02

(Q) Given `CC(=N)N1CCC(Oc2ccc3c(c2)/C(=C/c2ccc(Cl)cc2)C(=O)N3Cc2ccc3ccc(C(=N)N)cc3c2)CC1` , state its recorded pIC50.
(A) 5.83

(Q) Value lookup for pIC50; key = `CC(=N)N1CCC(Oc2ccc3c(c2)n(Cc2ccc4ccc(C(=N)N)cc4c2)c(=O)n3C(C)C)CC1`
(A) 5.61

(Q) So what's the measured pIC50 for this one? CC(=N)N1CCC(Oc2ccc3c(c2)C(CC(=O)O)C(=O)N3Cc2ccc3ccc(C(=N)N)cc3c2)CC1 (stereo not shown)
(A) 5.00

(Q) Fill in: pIC50 of `CC(=N)N1CCC(Oc2ccc3c(c2)C=CS(=O)(=O)N3Cc2ccc3ccc(C(=N)N)cc3c2)CC1` is ___
(A) 5.73
